// values below are reported IC50
# STUDY SYSTEM: SIK2 (Homo sapiens (Human))
# Sequence (Q9H0K1 whole entry, species assumed): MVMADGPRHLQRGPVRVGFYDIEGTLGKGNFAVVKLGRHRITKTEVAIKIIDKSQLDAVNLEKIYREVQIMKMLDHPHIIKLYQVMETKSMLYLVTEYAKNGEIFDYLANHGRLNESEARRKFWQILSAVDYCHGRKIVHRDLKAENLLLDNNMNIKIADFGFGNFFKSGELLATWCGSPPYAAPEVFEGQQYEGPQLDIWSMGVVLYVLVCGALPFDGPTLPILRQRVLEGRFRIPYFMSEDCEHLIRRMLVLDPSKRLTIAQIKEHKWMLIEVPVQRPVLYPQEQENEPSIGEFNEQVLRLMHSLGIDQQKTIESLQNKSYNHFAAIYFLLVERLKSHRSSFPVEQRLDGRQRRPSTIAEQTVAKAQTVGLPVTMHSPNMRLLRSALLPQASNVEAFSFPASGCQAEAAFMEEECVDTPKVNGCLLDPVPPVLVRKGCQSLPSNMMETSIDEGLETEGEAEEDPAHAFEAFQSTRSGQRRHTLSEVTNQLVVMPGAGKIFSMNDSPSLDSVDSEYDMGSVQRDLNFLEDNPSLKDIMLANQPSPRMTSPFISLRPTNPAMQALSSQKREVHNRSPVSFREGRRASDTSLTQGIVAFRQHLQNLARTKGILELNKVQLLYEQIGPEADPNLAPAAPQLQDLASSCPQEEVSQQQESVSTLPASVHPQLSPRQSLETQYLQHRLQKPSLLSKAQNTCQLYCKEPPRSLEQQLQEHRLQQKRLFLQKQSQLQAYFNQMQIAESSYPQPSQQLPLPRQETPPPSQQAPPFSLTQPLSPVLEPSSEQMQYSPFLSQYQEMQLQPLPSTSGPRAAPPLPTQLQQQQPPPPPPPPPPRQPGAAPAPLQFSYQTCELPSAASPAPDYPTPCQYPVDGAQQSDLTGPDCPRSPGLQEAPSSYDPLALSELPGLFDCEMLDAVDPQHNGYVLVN
# METHOD DESCRIPTION: SIK2 Enzymatic Assay Version 1 (ADP Glo)
# Format: biochemical
# EXPERIMENTAL CONDITIONS: 80 μM ATP and 70 μM HDAC5tide final, ADPGlo luminescence
Give a bare numeral; the unit nM is implied.

Consider the following illustrative entries.
COMPOUND: CN1CC[C@@H](Oc2cnn(C)c2-c2ccn3nc(NC(=O)C4CC4)cc3c2)C1 [Example 488]
READOUT LABEL: IC50
DATA VALUE: 6.45
//
COMPOUND: CN1CCO[C@H](COc2cnn(C)c2-c2ccn3nc(NC(=O)C4CC4)cc3c2)C1 [Example 487]
READOUT LABEL: IC50
DATA VALUE: 12.9

Lab note: next compound to report on.
Hey, SIK2 (Homo sapiens (Human)) data for Cc1oncc1-c1ccn2nc(NC(=O)C3CC3)cc2c1 [Example 486] : IC50 came out at 39.7
